System: Vero E6 infected with SARS-CoV-2
Assay: inhibition of SARS-CoV-2 cytopathic effect; higher = more antiviral protection, active = above 15
Conditions: 8.33 nM; 48 h
measured.parameter: inhibition of SARS-CoV-2 cytopathic effect (%)
Use % as the unit, but write only the number.

{"molecule": "Cc1cc(CCC[C@H](CC(=O)NO)C(=O)N[C@H](C(=O)N[C@H](C)c2ccccc2)C(C)(C)C)ccc1-c1ccccc1", "reported.value": -2.08}
{"molecule": "CCCCc1nc(Cl)c(CO)n1Cc1ccc(-c2ccccc2-c2nnn[nH]2)cc1 [losartan]", "reported.value": 1.87}
{"molecule": "O=C(CCCN1CC=C(n2c(=O)[nH]c3ccccc32)CC1)c1ccc(F)cc1 [droperidol]", "reported.value": 3.34}
{"molecule": "O=C(O)Cn1c(C(=O)Nc2nc(-c3ccccc3Cl)cs2)cc2ccccc21", "reported.value": -0.21}
{"molecule": "CC(C)N(CCCCOCC(=O)NS(C)(=O)=O)c1cnc(-c2ccccc2)c(-c2ccccc2)n1 [selexipag]", "reported.value": -1.02}
{"molecule": "CN1C2C=C(c3sccc3Br)CC1CC2 (centres undefined)", "reported.value": -2.54}

Now for another entry.
## Task // query inhibition of SARS-CoV-2 cytopathic effect value for entry "FC(F)(F)c1cccc(-c2noc(-c3cc(-c4ccccc4)c(C(F)(F)F)s3)n2)c1"
## Result 0.95
